Target: LIMK1 (human)
Assay: KINOMEscan competition binding
Conditions: compound 10.0 µM

- smilesNotation: "Cc1cnc(-c2cnc(NCCNc3ccc(C#N)cn3)nc2-c2ccc(Cl)cc2Cl)[nH]1"
  kinase still bound, per cent of control / %: 100
- smilesNotation: "Cn1cc(C2=C(c3ccc(Cl)cc3Cl)C(=O)NC2=O)c2ccccc21"
  kinase still bound, per cent of control / %: 93
- smilesNotation: "COc1ccc(CNC(=O)Nc2ncc([N+](=O)[O-])s2)cc1"
  kinase still bound, per cent of control / %: 100
- smilesNotation: "O=C1Nc2cc(Br)ccc2/C1=C1/Nc2ccccc2/C1=N\\O"
  kinase still bound, per cent of control / %: 59
